Reference source for all entries: patent US20060257938A1

- assay_explanation: Probe fluorescence ratio response to linolenic acid relative to ADIFAB2
- Type: binding
- reported_conditions: response relative to ADIFAB2
Measured DR/DR LNA of individual entries
endpoint_name: DR/DR LNA

INSERT INTO results (molecule, recorded_value) VALUES
  ('78A, 72A (protein, listed as Rattus norvegicus, PEPTIDE (1)...(131) wild-type rat intestinal fatty acid binding protein) AFDGTWKVDRNENYEKFMEKMGINVVKRKLGAHDNLKLTITQEGNKFTVKESSNFRNIDVVFELGVDFAYSAADGTEATGTWTMEGNKLVGKFKRVDNGKELIAVREISGNELIQTYTYEGVEAKRIFKKE', 0.429),
  ('17K 72A (protein, listed as Rattus norvegicus, PEPTIDE (1)...(131) wild-type rat intestinal fatty acid binding protein) AFDGTWKVDRNENYEKKMEKMGINVVKRKLGAHDNLKLTITQEGNKFTVKESSNFRNIDVVFELGVDFAYSAADGTELTGTWTMEGNKLVGKFKRVDNGKELIAVREISGNELIQTYTYEGVEAKRIFKKE', 0.29),
  ('126F, 72A (protein, listed as Rattus norvegicus, PEPTIDE (1)...(131) wild-type rat intestinal fatty acid binding protein) AFDGTWKVDRNENYEKFMEKMGINVVKRKLGAHDNLKLTITQEGNKFTVKESSNFRNIDVVFELGVDFAYSAADGTELTGTWTMEGNKLVGKFKRVDNGKELIAVREISGNELIQTYTYEGVEAKFIFKKE', 0.53),
  ('51A1, 72A (protein, listed as Rattus norvegicus, PEPTIDE (1)...(131) wild-type rat intestinal fatty acid binding protein) AFDGTWKVDRNENYEKFMEKMGINVVKRKLGAHDNLKLTITQEGNKFTVKASSNFRNIDVVFELGVDFAYSAADGTELTGTWTMEGNKLVGKFKRVDNGKELIAVREISGNELIQTYTYEGVEAKRIFKKE', 1.49),
  ('23L3, 72A (protein, listed as Rattus norvegicus, PEPTIDE (1)...(131) wild-type rat intestinal fatty acid binding protein) AFDGTWKVDRNENYEKFMEKMGLNVVKRKLGAHDNLKLTITQEGNKFTVKESSNFRNIDVVFELGVDFAYSAADGTELTGTWTMEGNKLVGKFKRVDNGKELIAVREISGNELIQTYTYEGVEAKRIFKKE', 1.03),
  ('102R, 72A (protein, listed as Rattus norvegicus, PEPTIDE (1)...(131) wild-type rat intestinal fatty acid binding protein) AFDGTWKVDRNENYEKFMEKMGINVVKRKLGAHDNLKLTITQEGNKFTVKESSNFRNIDVVFELGVDFAYSAADGTELTGTWTMEGNKLVGKFKRVDNGKERIAVREISGNELIQTYTYEGVEAKRIFKKE', 0.57);
